Reference source: PubChem BioAssay

Property: inhibition; scope: individual molecules
procedure_details: inhibitors of TNFa-induced NFkB p65 translocation, primary screen, imaging, HUVEC, MLSMR starter and 10KST1 sets (AID 438);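 note: compound added about 3h40 before a 20 min TNFalpha stimulation; signal is the nuclear over cytoplasmic p65 intensity ratio per well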
condition_parameters: HUVEC TNFa-induced p65 nuclear translocation; at 2 µM, stronger effect = higher value, 0% TNFa-plus-vehicle, 100% no-TNFa wells
Where a SMILES comes first, the peptide text is derived from it. The star is where a group is joined. Boc = CC(C)(C)OC(=O)*
The response must be a number in % with no trailing unit.

Some molecules with known inhibition results, for comparison:
{"molecule": "CCn1cc(C(=O)O)c(=O)c2cc(F)c(N3CCN(C(=O)Nc4ccccc4)CC3)cc21", "inhibition [%]": -14}
{"molecule": "CCOc1ccc2ccccc2c1C(=O)N1CCN(c2ccccc2)CC1", "inhibition [%]": -3}
{"molecule": "COc1ccc(Nc2nc(-c3sc(N)nc3C)cs2)cc1", "inhibition [%]": -5.8}
{"molecule": "Cc1occc1-c1nnc(SCC(=O)c2ccc(F)cc2)n1Cc1ccco1", "inhibition [%]": 5}
{"molecule": "CN(Cc1ccccc1)C(=O)c1ccccc1NC(=O)c1ccco1", "inhibition [%]": -9.3}
{"molecule": "N#Cc1c2n(c(=S)n(-c3ccccn3)c1=O)CCCCC2", "inhibition [%]": -26.4}
{"molecule": "COc1cc(-n2nc(C)c3c2OC(N)=C(C#N)C3c2ccccc2)c(Cl)c(Br)c1O (stereo unspecified)", "inhibition [%]": -1.6}
{"molecule": "O=C(NCc1cccs1)c1cc2c(s1)-c1ccccc1OC2", "inhibition [%]": 1.6}
{"molecule": "COc1ccc(-c2cc(C(F)(F)F)n3nc(C(=O)N4CCOCC4)nc3n2)cc1", "inhibition [%]": 11.1}
{"molecule": "CCOP(=O)(c1ccc(N(C)C)cc1)C(O)c1ccccc1OC (stereo unspecified)", "inhibition [%]": -5.5}

Can you share its inhibition? I mean this molecule: Cc1csc(NC(=O)CCCSc2nc3ccccc3s2)n1
0.9

Okay, and Cn1c(=O)[nH]c(=O)c2c1ncn2CCN1CCOCC1 ?
-12.1

Item: Cc1ccc(-c2noc(COc3ccccc3C)n2)cc1
-7.8

// query: CCOCCCNC(=O)Cn1ncc2c(=O)oc3ccccc3c21
-13.4

Likewise for COc1ccccc1N(CN1CCCC1=O)C(=O)c1c(F)cccc1Cl ?
-0.3

Moving on to CC(C)CCNc1cc(=O)n(C)c(=O)n1C
-3.9

Param item: O=S(=O)(c1ccc(S(=O)(=O)N2CCN3CCCC3C2)cc1)N1CCCC1 (stereo unspecified)
-5.3

How about this molecule: COCCn1nnnc1C(C(C)C)N1CCN(C(=O)c2ccco2)CC1 (stereo unspecified)
1.6

What about CC(C)[C@H](NC(=O)NC1CCCC1)C(=O)O ?
2.5

Repeat for the following molecule: COc1c(S(=O)(=O)n2nc(C)cc2C)ccc(Cl)c1Cl
11.4

Now give it for CCc1nnc2c3cnn(-c4ccccc4)c3ncn12 too.
-2.9

Follow-up item: COc1cc(NS(=O)(=O)N2CCCC2)cc(OC)c1OC
0.7

What do you have for C=CCn1c(=O)n(CCOC)c(=O)c2sc3ccccc3c21 ?
-3.4

Same read-out for CCSc1nnc(NC(=O)CCNS(=O)(=O)c2cc(Br)cnc2N)s1 ?
-1.3

Follow-up item: CC(NC(=O)OC(C)(C)C)C(=O)N1CCCC1C(=O)NC(Cc1ccccc1)C(N)=O (stereo not drawn) (Boc-Ala-Pro-Phe-NH2; configuration not given here)
9.7

Please give the result for O=C(NCCc1ccccn1)c1ccc(COc2ccccc2)o1 too.
-26.3

Next: CC(Sc1nc(-c2ccccc2)cc(C(F)(F)F)n1)C(=O)N1CCCC1 (stereo unspecified)
-1.1

Now the same for O=C(C(c1ccccc1)c1ccccc1)N1CCN(Cc2ccccn2)CC1
-7.5

Continue with CCOC(=O)c1cnc(SCC)[nH]c1=O
-11.8
